These entries and their values trace back to BigSolDB 2.1.

conditions: in n-butanol, 298.15 K
Quantity: solubility (mole fraction)
Give only the figure.

Query: I have this compound here, O=C(O)c1c(O)cccc1O , and I need its recorded solubility (mole fraction).
Result: 0.245

* * *

details: in isopropanol, 278.15 K
Quantity: solubility (mole fraction)
No unit in the answer, please; the number alone is enough.

Query: What value of solubility (mole fraction) has been reported for the following molecule? O=C(O)c1c(O)cccc1O
Result: 0.225

* * *

conditions: in ethanol, 308.15 K
Quantity: solubility (mole fraction)
Give the figure by itself; no unit, no explanation.

Query: What value of solubility (mole fraction) has been reported for the following molecule? O=C(O)c1c(O)cccc1O
Result: 0.294
